subject_of_test: T1, human GITR-Fc (human, UniProt Q9Y5U5 26-162)
T1 construct: also called recombinant hGITR; wild type human GITR-Fc
T1 sequence: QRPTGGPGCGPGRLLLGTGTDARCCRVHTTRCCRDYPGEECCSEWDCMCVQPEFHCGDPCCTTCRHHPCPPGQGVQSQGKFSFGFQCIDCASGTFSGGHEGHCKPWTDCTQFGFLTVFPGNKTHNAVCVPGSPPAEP
assay_method_text: BLI Octet RED384, ABP on AHQ sensor, 100 nM antigen, single concentration;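 also: association and dissociation each tracked over 180 s, with dissociation run in antigen-free buffer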
Binarize Kd at 6 nM; below is Fulfilled, at or above is Not fulfilled.

- binder: "ABP47 (antibody, human IgG1, kappa, N297A, V domains shown, IgG1 N297A, H1H2-optimized, non-TM) VH: QVQLVQSGAEVKKPGSSVKVSCKASGGTFVRYAISWVRQAPGQGLEWMGGIIPIFGEAQYAQKFQGRVTITADESTSTAYMELSSLRSEDTAVYYCAREGYYYGALPYWGQGTLVTVSS VL: EIVLTQSPATLSLSPGERATLSCRASQSVSSYLAWYQQKPGQAPRLLIYDASNRATGIPARFSGSGSGTDFTLTISSLEPEDFAVYYCQQHSVFPPTFGGGTKVEIKR"
  assigned_label: "Not fulfilled"
- binder: "ABP41 (antibody, human IgG1, kappa, N297A, V domains shown, IgG1 N297A, bivalent; also called non-TM ABP corresponding to ABP8) VH: QVQLQESGPGLVKPSETLSLTCAVSGYSISSEYMWGWIRQPPGKGLEWIGLIYHSGKTYYNPSLKSRVTISVDTSKNQFSLKLSSVTAADTAVYYCAREADRGYGDYGGHHAFDIWGQGTMVTVSS VL: DIQMTQSPSSLSASVGDRVTITCGASQSISTYLNWYQQKPGKAPKLLIYSASSLESGVPSRFSGSGSGTDFTLTISSLQPEDFATYYCQQEYNTPPSFGGGTKVEIKR"
  assigned_label: "Fulfilled"
- binder: "ABP14 (antibody, human IgG1, kappa, N297A, V domains shown) VH: QVQLVQSGAEVKKPGSSVKVSCKASGGTFSSYAISWVRQAPGQGLEWMGGIIPISGFTNYAQKFQGRVTITADESTSTAYMELSSLRSEDTAVYYCAREGGHYYSGWPYWGQGTLVTVSS VL: EIVLTQSPATLSLSPGERATLSCRASQSVSSYLAWYQQKPGQAPRLLIYDASNRATGIPARFSGSGSGTDFTLTISSLEPEDFAVYYCQQRLVFPPTFGGGTKVEIKR"
  assigned_label: "Fulfilled"
- binder: "ABP13 (antibody, human IgG1, kappa, N297A, V domains shown) VH: QVQLVQSGAEVKKPGSSVKVSCKASGGTFSRGAISWVRQAPGQGLEWMGGIIPIEGTAYYAQKFQGRVTITADESTGTAYMELSSLRSEDTAVYYCARQSDYGLPRGMDVWGQGTTVTVSS VL: DIQLTQSPSSVSASVGDRVTITCRASQGISSWLAWYQQKPGKAPKLLIYGASSLQSGVPSRFSGSGSGTDFTLTISSLQPEDFATYYCQQASLFPPTFGGGTKVEIKR"
  assigned_label: "Fulfilled"
- binder: "ABP46 (antibody, human IgG1, kappa, N297A, V domains shown, IgG1 N297A, H1H2-optimized, non-TM) VH: QVQLVQSGAEVKKPGSSVKVSCKASGGTFSSYAISWVRQAPGQGLEWMGGIIPISGFANYAQKFQGRVTITADESTSTAYMELSSLRSEDTAVYYCAREGGHYYSGWPYWGQGTLVTVSS VL: EIVLTQSPATLSLSPGERATLSCRASQSVSSYLAWYQQKPGQAPRLLIYDASNRATGIPARFSGSGSGTDFTLTISSLEPEDFAVYYCQQRLVFPPTFGGGTKVEIKR"
  assigned_label: "Not fulfilled"
